The reported numbers originate from patent US10995101B2.

For each entry below, report its log10 of IC50 value.
# experimental-system: A2A receptor (Homo sapiens, UniProt P29274)
# Sequence (P29274 whole entry): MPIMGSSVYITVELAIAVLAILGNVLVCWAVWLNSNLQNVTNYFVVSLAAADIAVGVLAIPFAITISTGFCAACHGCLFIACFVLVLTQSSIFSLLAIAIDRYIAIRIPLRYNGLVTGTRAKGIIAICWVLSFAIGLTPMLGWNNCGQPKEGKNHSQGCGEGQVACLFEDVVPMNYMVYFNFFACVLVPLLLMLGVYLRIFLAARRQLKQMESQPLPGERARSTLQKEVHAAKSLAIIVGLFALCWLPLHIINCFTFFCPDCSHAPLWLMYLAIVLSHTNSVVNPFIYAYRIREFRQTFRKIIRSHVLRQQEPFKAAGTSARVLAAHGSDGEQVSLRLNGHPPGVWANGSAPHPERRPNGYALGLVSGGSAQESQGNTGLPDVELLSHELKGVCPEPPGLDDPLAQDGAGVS
# protocol-text: Inhibition of cAMP production in HEK cells
# Format: cell-based
# measurement-parameters: IC50 (nM) (3 nM NECA as agonist, 0.1% BSA), HEK-293 cells with A2A receptor, 3 nM NECA as agonist, 0.1% BSA
Scale type: logarithmic (base 10). Underlying IC50 unit: nM.

# input What reported log10 of IC50 corresponds to Nc1nc2c(sc(=O)n2CCN2CCN(c3ccc(OCC(=O)O)cc3F)CC2)c2nc(-c3ccco3)nn12 [Compound 35] on A2A receptor (Homo sapiens, UniProt P29274)?
# output -0.15

# input Provide the documented log10 of IC50 with A2A receptor (Homo sapiens, UniProt P29274) as the system for CS(=O)(=O)c1ccc(N2CCN(CCn3c(=O)sc4c3nc(N)n3nc(-c5ccco5)nc43)CC2)c(F)c1 [Compound 29]
# output -0.40

# input Value wanted: log10 of IC50 (A2A receptor (Homo sapiens, UniProt P29274)) of entry CN(C)CCOc1ccc(N2CCN(CCn3c(=O)sc4c3nc(N)n3nc(-c5ccco5)nc43)CC2)cc1 [Compound 17]
# output 0.00

# input # get_value(readout= log10 of IC50, system= A2A receptor (Homo sapiens, UniProt P29274)) for N#CCOc1cc(N2CCN(CCn3c(=O)sc4c3nc(N)n3nc(-c5ccco5)nc43)CC2)c(F)cc1F [Compound 74]
# output 0.08

# input What measured log10 of IC50 is associated with Nc1nc2c(sc(=O)n2CCN2CCN(c3ccncn3)CC2)c2nc(-c3ccco3)nn12 [Compound 76] on A2A receptor (Homo sapiens, UniProt P29274)?
# output 0.70

# input Recorded log10 of IC50 for CNS(=O)(=O)c1ccc(N2CCN(CCn3c(=O)sc4c3nc(N)n3nc(-c5ccco5)nc43)CC2)cc1 [Compound 19] with A2A receptor (Homo sapiens, UniProt P29274), please?
# output 0.41

# input Form entry - test system: A2A receptor (Homo sapiens, UniProt P29274); read-out: log10 of IC50; molecule: Nc1nc2c(sc(=O)n2CCN2CCN(c3ccc(OCC4CCNCC4)cc3F)CC2)c2nc(-c3ccco3)nn12 [Compound 25]
# output 0.08

# input Lookup: log10 of IC50 / A2A receptor (Homo sapiens, UniProt P29274) / Nc1nc2c(sc(=O)n2CCN2CCN(c3ccc(O[C@H]4CC[S@@+]([O-])CC4)cc3F)CC2)c2nc(-c3ccco3)nn12 (single isomer, unassigned) [Compound 121]
# output -0.10
